Tested on: anaplastic large cell lymphoma cells (DELBVR)
measurement_notes: In vitro potency (CellTiter-Glo, 96 h) on DELBVR
Format: cell-based
test_parameters: 96 h, CPT free drugs; CellTiter-Glo after 96 h exposure; read-out: DELBVR IC50
Hi! Just check whether IC50 is below 5 nM. Below gives MET, equal or above gives NOT MET.

The examples below pair each entry with its known result.
C=C(C)c1ccc2nc3c(c(CN)c2c1)Cn1c-3cc2c(c1=O)COC(=O)[C@]2(O)CC [Compound 33a] : NOT MET
CC[C@@]1(O)C(=O)OCc2c1cc1n(c2=O)Cc2c-1nc1cc(F)c(C)c(C3=CCSCC3)c1c2CN : NOT MET

Strictly below 5 nM in IC50? `CC[C@@]1(O)C(=O)OCc2c1cc1n(c2=O)Cc2c-1nc1cc(F)c(C)c(-c3ccc(O)cc3)c1c2CN` NOT MET

Strictly below 5 nM in IC50? `C/C=C(\C)c1c(C)c(F)cc2nc3c(c(CN)c12)Cn1c-3cc2c(c1=O)COC(=O)[C@]2(O)CC` MET

---

Tested on: breast cancer cells (MDA-MB-231)
measurement_notes: In vitro potency (CellTiter-Glo, 96 h) on MDA-MB-231
Type: cell-based
test_parameters: Homo sapiens, MDA-MB-231, 96 h, read-out: MDAMB 231 IC50
IC50 values, listed per item
Could you give me the number in nM? Just the number is fine.

CC[C@@]1(O)C(=O)OCc2c1cc1n(c2=O)Cc2c-1nc1cc3c(cc1c2CNCCN1CCNCC1)OCO3 : 260
C=Cc1c(C)c(F)cc2nc3c(c(CN)c12)Cn1c-3cc2c(c1=O)COC(=O)[C@]2(O)CC : 5
CC[C@@]1(O)C(=O)OCc2c1cc1n(c2=O)Cc2c-1nc1cc3c(cc1c2CNC(C)=O)OCO3 [Compound 12b] : 28
CC[C@@]1(O)C(=O)OCc2c1cc1n(c2=O)Cc2c-1nc1cc3c(cc1c2CNCCCN1CCNCC1)OCO3 : 25

Lab note: measured IC50 of `CC[C@@]1(O)C(=O)OCc2c1cc1n(c2=O)Cc2c-1nc1cc3c(cc1c2CN1CCN(CCN)CC1)OCO3` was 57

Lab note: measured IC50 of `CCc1c(C)c(F)cc2nc3c(c(CN)c12)Cn1c-3cc2c(c1=O)COC(=O)[C@]2(O)CC` was 59

---

IC50 values, listed per item
System: anaplastic large cell lymphoma cells (Karpas299)
measurement_notes: In vitro potency (CellTiter-Glo, 96 h) on Karpas299
Assay type: cell-based
test_parameters: Homo sapiens, KARPAS-299, 96 h, CPT free drugs; CellTiter-Glo after 96 h exposure; read-out: Karpas299 IC50
Protocol: In vitro potency was assessed on multiple cancer cell lines. All cell lines were authenticated by STR profiling at IDEXX Bioresearch and cultured for no more than 2 months after resuscitation. […] After 96 hours, growth inhibition was assessed by CellTiterGlo® (Promega, Madison, WI) and luminescence was measured on a plate reader. Cell viability was determined by CellTiter-Glo staining after 96h exposure to ADC. ND=Not Determined. […]
Could you give me the number in nM? Just the number is fine.

C/C=C(\C)c1c(C)c(F)cc2nc3c(c(CN)c12)Cn1c-3cc2c(c1=O)COC(=O)[C@]2(O)CC [Compound 6a] : 5
CC[C@@]1(O)C(=O)OCc2c1cc1n(c2=O)Cc2c-1nc1cc(F)c(C)c(C3=CCSCC3)c1c2CN [Compound 6m] : 12
CC[C@@]1(O)C(=O)OCc2c1cc1n(c2=O)Cc2c-1nc1cc3c(cc1c2CN(C)CCCN)OCO3 [Compound 8] : 54

Now consider a different compound.
Lab note: measured IC50 of CC[C@@]1(O)C(=O)OCc2c1cc1n(c2=O)Cc2c-1nc1ccc3c(c1c2CN)COC3 [Compound 2aq] was 7

---

Tested on: anaplastic large cell lymphoma cells (DEL)
measurement_notes: In vitro potency (CellTiter-Glo, 96 h) on DEL
Format: cell-based
test_parameters: 96 h, read-out: DEL IC50
reported_metric: IC50

CC[C@@]1(O)C(=O)OCc2c1cc1n(c2=O)Cc2c-1nc1cc3c(cc1c2CNC(C)=O)CCO3 [Compound 12] : 1 nM
CC[C@@]1(O)C(=O)OCc2c1cc1n(c2=O)Cc2c-1nc1cc3c(cc1c2CNC(=O)CN)CCO3 [Compound 13] : 8 nM
CC[C@@]1(O)C(=O)OCc2c1cc1n(c2=O)Cc2c-1nc1cc3c(cc1c2CNC1CCNCC1)OCO3 [Compound 8e] : 7 nM
CC[C@@]1(O)C(=O)OCc2c1cc1n(c2=O)Cc2c-1nc1cc3c(cc1c2CO)CCO3 [Compound 35] : 0.6 nM

Now consider a different compound.
Lab note: measured IC50 of CC[C@@]1(O)C(=O)OCc2c1cc1n(c2=O)Cc2c-1nc1cc3c(cc1c2CNCCN1CCNCC1)OCO3 [Compound 8b] was 8 nM

---

System: anaplastic large cell lymphoma cells (Karpas299)
measurement_notes: In vitro potency (CellTiter-Glo, 96 h) on Karpas299
Format: cell-based
test_parameters: Homo sapiens, KARPAS-299, 96 h, CPT free drugs; CellTiter-Glo after 96 h exposure; read-out: Karpas299 IC50
reported_metric: pIC50
Hey, just a heads up that pIC50 is the negative log base 10 of the concentration in molar.

Record for `CC[C@@]1(O)C(=O)OCc2c1cc1n(c2=O)Cc2c-1nc1ccc3c(c1c2CN)SCC3` under target or system anaplastic large cell lymphoma cells (Karpas299): pIC50 reported as 7.59

Record for `CC[C@@]1(O)C(=O)OCc2c1cc1n(c2=O)Cc2c-1nc1cc3c(cc1c2CN)CC=C3` under target or system anaplastic large cell lymphoma cells (Karpas299): pIC50 reported as 8.00

Record for `CC[C@@]1(O)C(=O)OCc2c1cc1n(c2=O)Cc2c-1nc1cc3c(c(F)c1c2CN)CCC3` under target or system anaplastic large cell lymphoma cells (Karpas299): pIC50 reported as 7.34

Record for `CC[C@@]1(O)C(=O)OCc2c1cc1n(c2=O)Cc2c-1nc1cc(F)c(C)c(C3=CCCCC3)c1c2CN` under target or system anaplastic large cell lymphoma cells (Karpas299): pIC50 reported as 7.85

---

pIC50 values, listed per item
Tested on: renal carcinoma cells (786-O)
measurement_notes: In vitro potency (CellTiter-Glo, 96 h) on 786-O
Type: cell-based
test_parameters: Homo sapiens, 786-0, 96 h, read-out: 786-O IC50
Hey, just a heads up that pIC50 is the negative log base 10 of the concentration in molar.

Consider the following illustrative entries.
CC[C@@]1(O)C(=O)OCc2c1cc1n(c2=O)Cc2c-1nc1cc3c(cc1c2CNC[C@@H](O)CN1CCCCC1)OCO3 : 6.91
CC[C@@]1(O)C(=O)OCc2c1cc1n(c2=O)Cc2c-1nc1cc3c(cc1c2CN)CCO3 : 8.30
CCc1c(C)c(F)cc2nc3c(c(CN)c12)Cn1c-3cc2c(c1=O)COC(=O)[C@]2(O)CC : 7.27
CC[C@@]1(O)C(=O)OCc2c1cc1n(c2=O)Cc2c-1nc1cc3c(cc1c2CNCC(O)CN1CCOCC1)OCO3 (stereo partly drawn) : 6.93
CC[C@@]1(O)C(=O)OCc2c1cc1n(c2=O)Cc2c-1nc1cc(F)c(C)c(Cl)c1c2CNC(=O)CN [Compound 13a] : 8.22

Record for `C=Cc1c(C)c(F)cc2nc3c(c(CN)c12)Cn1c-3cc2c(c1=O)COC(=O)[C@]2(O)CC` under target or system renal carcinoma cells (786-O): pIC50 reported as 8.70

Record for `CC[C@@]1(O)C(=O)OCc2c1cc1n(c2=O)Cc2c-1nc1cc3c(cc1c2CNCCN1CCNCC1)OCO3` under target or system renal carcinoma cells (786-O): pIC50 reported as 6.99

Record for `CC[C@@]1(O)C(=O)OCc2c1cc1n(c2=O)Cc2c-1nc1cc3c(cc1c2CNCCOC)OCO3` under target or system renal carcinoma cells (786-O): pIC50 reported as 9.05

Record for CC[C@@]1(O)C(=O)OCc2c1cc1n(c2=O)Cc2c-1nc1cc3c(cc1c2CNC(C)=O)OCO3 [Compound 12b] under target or system renal carcinoma cells (786-O): pIC50 reported as 7.92

Record for `CC[C@@]1(O)C(=O)OCc2c1cc1n(c2=O)Cc2c-1nc1cc3c(cc1c2CNC[C@H](O)CO)OCO3` under target or system renal carcinoma cells (786-O): pIC50 reported as 7.18

Record for `CC[C@@]1(O)C(=O)OCc2c1cc1n(c2=O)Cc2c-1nc1cc3c(cc1c2CN1CCN(CCN)CC1)OCO3` under target or system renal carcinoma cells (786-O): pIC50 reported as 7.57

Record for `CC[C@@]1(O)C(=O)OCc2c1cc1n(c2=O)Cc2c-1nc1cc3c(cc1c2CNC1CCNCC1)OCO3` under target or system renal carcinoma cells (786-O): pIC50 reported as 6.98

Record for CC[C@@]1(O)C(=O)OCc2c1cc1n(c2=O)Cc2c-1nc1cc(F)c(C)c(Cl)c1c2CNC(C)=O [Compound 12a] under target or system renal carcinoma cells (786-O): pIC50 reported as 9.00

Record for `CC[C@@]1(O)C(=O)OCc2c1cc1n(c2=O)Cc2c-1nc1cc(F)c(C)c(C=C(C)C)c1c2CN` under target or system renal carcinoma cells (786-O): pIC50 reported as 8.30

Record for `CC[C@@]1(O)C(=O)OCc2c1cc1n(c2=O)Cc2c-1nc1cc3c(c(Br)c1c2CN)OCO3` under target or system renal carcinoma cells (786-O): pIC50 reported as 9.00
